ASSAY METHOD TEXT: self-splicing fitness, log relative to wild type (ln ratio); higher = more splicing; Tetrahymena group I intron in knt gene, E. coli kanamycin selection, DiMSum; sequences stand for … in CUCUCU…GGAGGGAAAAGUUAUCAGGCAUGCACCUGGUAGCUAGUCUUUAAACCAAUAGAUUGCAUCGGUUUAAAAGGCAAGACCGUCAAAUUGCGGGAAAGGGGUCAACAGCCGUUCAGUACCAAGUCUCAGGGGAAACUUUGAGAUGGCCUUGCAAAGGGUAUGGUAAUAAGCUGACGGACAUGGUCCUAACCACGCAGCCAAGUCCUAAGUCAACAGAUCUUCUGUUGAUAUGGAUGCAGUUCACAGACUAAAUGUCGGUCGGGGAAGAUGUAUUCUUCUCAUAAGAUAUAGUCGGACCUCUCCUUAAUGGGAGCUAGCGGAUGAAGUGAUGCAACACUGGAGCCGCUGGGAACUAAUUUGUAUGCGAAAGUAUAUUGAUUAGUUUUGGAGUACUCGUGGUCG;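 note: selection with 25 µg/mL kanamycin versus none on LB agar overnight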
EXPERIMENTAL PARAMETERS: 30 °C
RESULT TYPE: self-splicing fitness (ln)

Examples with their reported self-splicing fitness (ln) follow.
SEQUENCE ENTRY	self-splicing fitness (ln)
UACGAGCAAUAUUACGCGGG	-2.83
GUCGAGCAAUAUUACGCACU	-1.47
AGAUAGCAAUAUUACGUCAA	-1.15

Entry under review: CAGUAGCAAUAUUACGUUGG . Reported self-splicing fitness (ln)?
-1.56

Query: self-splicing fitness (ln); subject: CAAUAGCAAUAUUACGUACC
-4.73

Could you share which self-splicing fitness (ln) value was measured for UGCGAGCAAUAUUACGCGGG ?
-2.61

Name the recorded self-splicing fitness (ln) for CCCCAGCAAUAUUACGUCGC .
-3.65

Reported self-splicing fitness (ln) for AGCUAGCAAUAUUACGACAC : what is it?
-2.07

I would be grateful if you could share the reported self-splicing fitness (ln) for CCAGAGCAAUAUUACGUUAC .
-3.64
